System: Trypanosoma cruzi
test_method_notes: Antiparasitic activity against Trypanosoma cruzi Tulahuen C4 in amastigotes stage
Entry class follows IC50: 1: < 20 µM; 2: ≥ 20 µM and < 50 µM; 3: ≥ 50 µM

structure_notation | study_system | label_class
O=C(Cn1ccnc1[N+](=O)[O-])NCc1ccccc1 | Trypanosoma cruzi | 1
CCc1ccc(C(=O)CC(=O)C2CCOCC2)cc1 | Trypanosoma cruzi | 3
CSC(=CC(=O)c1ccc([N+](=O)[O-])cc1)SC | Trypanosoma cruzi | 3
O=[N+]([O-])c1ccc(-n2nc(-c3ccc(Oc4ccccc4)cc3)cc2N2CCOCC2)cc1 | Trypanosoma cruzi | 3
c1ccc(Oc2ccc(-c3cc(C4CCOCC4)[nH]n3)cc2)cc1 | Trypanosoma cruzi | 3
CSC(=CC(=O)c1ccc(Oc2ccc([N+](=O)[O-])cc2)cc1)SC | Trypanosoma cruzi | 3
O=C(CC(=O)C1CCOCC1)c1ccc(Oc2ccccc2)cc1 | Trypanosoma cruzi | 3
c1ccc(Oc2ccc(-c3cc(N4CCOCC4)[nH]n3)cc2)cc1 | Trypanosoma cruzi | 3
Nc1ccc(Oc2ccc(-c3cc(N4CCOCC4)[nH]n3)cc2)cc1 | Trypanosoma cruzi | 3
CSC(=CC(=O)c1ccc(Oc2ccccc2)cc1)SC | Trypanosoma cruzi | 2
CCc1ccc(-c2cc(C3CCOCC3)[nH]n2)cc1 | Trypanosoma cruzi | 3
O=C(CC(=O)c1ccc(Oc2ccccc2)cc1)CN1CCOCC1 | Trypanosoma cruzi | 2
Nc1ccc(-n2nc(-c3ccc(Oc4ccccc4)cc3)cc2N2CCOCC2)cc1 | Trypanosoma cruzi | 2
c1ccc(Oc2ccc(-c3cc(CN4CCOCC4)[nH]n3)cc2)cc1 | Trypanosoma cruzi | 2
c1ccc(Oc2ccc(-c3cc(N4CCOCC4)on3)cc2)cc1 | Trypanosoma cruzi | 2
O=[N+]([O-])c1ccc(Oc2ccc(-c3cc(N4CCOCC4)[nH]n3)cc2)cc1 | Trypanosoma cruzi | 3
CC(C)(C)OC(=O)N1CCN(c2cc(-c3ccc(Oc4ccccc4)cc3)n[nH]2)CC1 | Trypanosoma cruzi | 1
c1ccc(Oc2ccc(-c3cc(N4CCNCC4)[nH]n3)cc2)cc1 | Trypanosoma cruzi | 1
